biological target: T1, TRCW5 antigen (CD3δε-Fc-Avi) (biotinylated (site not stated)); assay: ELISA
T1 construct: also called recombinant CD3
T1 sequence (chain, as listed by the source mutant limits assumed): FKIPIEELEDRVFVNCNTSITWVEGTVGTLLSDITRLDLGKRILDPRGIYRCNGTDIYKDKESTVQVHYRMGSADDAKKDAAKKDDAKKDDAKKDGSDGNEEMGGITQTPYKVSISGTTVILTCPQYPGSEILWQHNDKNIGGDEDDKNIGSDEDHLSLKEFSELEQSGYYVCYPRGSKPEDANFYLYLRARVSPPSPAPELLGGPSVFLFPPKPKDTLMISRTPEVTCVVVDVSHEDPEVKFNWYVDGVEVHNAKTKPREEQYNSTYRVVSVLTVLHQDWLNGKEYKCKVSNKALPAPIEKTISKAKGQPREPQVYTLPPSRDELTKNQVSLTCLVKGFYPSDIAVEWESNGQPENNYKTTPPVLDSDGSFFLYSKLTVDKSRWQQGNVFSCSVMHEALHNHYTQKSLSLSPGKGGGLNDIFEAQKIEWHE
Kindly supply the reported EC50 values for the records listed here.
Value and unit, in that order.

Item CD3B2030 N106A (scFv) scFv: QVQLVQSGAEVKKPGSSVKVSCKASGYTFTRSTMHWVKQAPGQGLEWIGYINPSSAYTNYNQKFQGRVTLTADKSTSTAYMELSSLRSEDTAVYYCASPQVHYDYAGFPYWGQGTLVTVSSGGSEGKSSGSGSESKSTGGSEIVLTQSPATLSASPGERVTLSCSASSSVSYMNWYQQKPGQAPRRWIYDSSKLASGVPARFSGSGSGRDYTLTISSLEPEDFAVYYCQQWSRNPPTFGGGTKVEIK has what recorded EC50?
12.8 nM

Continue with CD3B2089 N106E (scFv) scFv: QVQLVQSGAEVKKPGSSVKVSCKASGYTFTRSTMHWVRQAPGQGLEWMGYINPSSAYTNYAQKFQGRVTLTADKSTSTAYMELSSLRSEDTAVYYCASPQVHYDYEGFPYWGQGTLVTVSSGGSEGKSSGSGSESKSTGGSEIVLTQSPATLSASPGERVTLSCSASSSVSYMNWYQQKPGQAPRRWIYDSSKLASGVPARFSGSGSGRDYTLTISSLEPEDFAVYYCQQWSRNPPTFGGGTKVEIK
10.3 nM

Try this binder too: CD3B2051 N106K (scFv) scFv: QVQLVQSGAEVKKPGSSVKVSCKASGYTFTRSTMHWVKQAPGQGLEWMGYINPSSAYTNYNQKFQGRVTLTADKSTSTAYMELSSLRSEDTAVYYCASPQVHYDYKGFPYWGQGTLVTVSSGGSEGKSSGSGSESKSTGGSEIVLTQSPATLSASPGERVTLSCSASSSVSYMNWYQQKPGQAPRRLIYDSSKLASGVPARFSGSGSGRDYTLTISSLEPEDFAVYYCQQWSRNPPTFGGGTKVEIK
11.4 nM
